tested_system: Serine/threonine-protein kinase Sgk3 (Homo sapiens);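 also: each value is a mean of replicate inhibition readings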
condition_context: at 1 µM
measurement_kind: inhibition
State the value, then name its unit.

- molecule: "FC(F)(F)CNc1nccc(-c2cnn3ncccc23)n1"
  result: "4.28%"
- molecule: "COc1cc2c(cc1Nc1nc(Nc3cccc(F)c3C(N)=O)c3cc[nH]c3n1)N(C(=O)CN1CCN(C(C)C)CC1)CC2"
  result: "0.46%"
- molecule: "CC1=C(C(=O)Nc2ccc3[nH]nc(C)c3c2)C(c2ccc(C(F)(F)F)cc2)CC(=O)N1 (centres undefined)"
  result: "6.15%"
- molecule: "CN(c1ccc(NC(=O)NCCN2CCOCC2)cc1)c1ccnc(Nc2ccc(CS(C)(=O)=O)cc2)n1"
  result: "2.63%"
- molecule: "CS(=O)(=O)Nc1ccc(-c2ccc3c(NC(=O)C4CC4)n[nH]c3c2)cc1"
  result: "0.14%"
- molecule: "COc1cc(N2CCN(C(C)C)CC2)ccc1Nc1nc(Nc2cccc(F)c2C(=O)O)c2cc[nH]c2n1"
  result: "4.41%"

Identify measured inhibition associated with NS(=O)(=O)c1ccc(N/N=C2\C(=O)Nc3cccc(CCc4ccncc4)c32)cc1 -0.92%

Identify measured inhibition associated with O=C(Nc1n[nH]c2nnc(-c3cccnc3)cc12)C1CC1 -0.26%

Identify measured inhibition associated with COc1c(C(N)=O)cc(-c2ccc(Cl)cc2)cc1-c1ccc(S(N)(=O)=O)cc1 3%

----------
Here, each record is paired with measured inhibition data.
tested_system: Tyrosine-protein kinase ABL2 (Homo sapiens) (UniProt P42684)
Sequence (P42684 whole entry): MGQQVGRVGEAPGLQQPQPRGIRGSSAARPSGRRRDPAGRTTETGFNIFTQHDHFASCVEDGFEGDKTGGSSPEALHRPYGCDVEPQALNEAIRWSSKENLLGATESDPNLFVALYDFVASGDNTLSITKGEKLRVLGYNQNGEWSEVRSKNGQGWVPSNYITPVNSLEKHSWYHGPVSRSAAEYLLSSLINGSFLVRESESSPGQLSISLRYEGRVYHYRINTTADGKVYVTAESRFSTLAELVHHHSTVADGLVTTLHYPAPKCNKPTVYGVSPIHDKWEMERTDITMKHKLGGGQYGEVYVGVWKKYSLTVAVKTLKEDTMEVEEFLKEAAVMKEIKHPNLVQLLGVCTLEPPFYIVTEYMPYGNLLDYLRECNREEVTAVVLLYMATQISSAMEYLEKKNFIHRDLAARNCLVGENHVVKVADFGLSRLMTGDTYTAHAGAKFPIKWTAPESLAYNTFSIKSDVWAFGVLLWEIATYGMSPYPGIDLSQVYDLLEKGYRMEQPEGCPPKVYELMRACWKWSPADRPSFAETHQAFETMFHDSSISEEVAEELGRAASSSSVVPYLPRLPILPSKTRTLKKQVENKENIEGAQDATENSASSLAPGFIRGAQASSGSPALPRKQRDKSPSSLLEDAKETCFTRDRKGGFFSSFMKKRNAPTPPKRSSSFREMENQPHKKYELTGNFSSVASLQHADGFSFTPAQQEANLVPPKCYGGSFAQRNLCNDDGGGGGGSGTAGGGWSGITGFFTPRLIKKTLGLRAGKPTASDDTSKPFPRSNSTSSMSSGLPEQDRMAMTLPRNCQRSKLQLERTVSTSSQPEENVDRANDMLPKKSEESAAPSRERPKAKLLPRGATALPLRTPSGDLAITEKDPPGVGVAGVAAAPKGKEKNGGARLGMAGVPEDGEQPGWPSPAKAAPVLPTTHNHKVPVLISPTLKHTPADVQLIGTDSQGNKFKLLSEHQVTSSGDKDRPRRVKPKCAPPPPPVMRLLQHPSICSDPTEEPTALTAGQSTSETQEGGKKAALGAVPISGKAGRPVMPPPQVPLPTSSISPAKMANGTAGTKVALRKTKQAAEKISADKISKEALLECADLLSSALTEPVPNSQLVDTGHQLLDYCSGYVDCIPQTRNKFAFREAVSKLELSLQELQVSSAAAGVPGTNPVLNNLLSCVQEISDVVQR
condition_context: at 1 µM
Description: GSK_PKIS: ARG mean inhibition at 1 uM [Nanosyn]
Output spec: scalar in %, unitless text.

Worked cases, answers included:
- compound: "CN(c1ccc(NC(=O)NCCN2CCOCC2)cc1)c1ccnc(Nc2ccc(CS(C)(=O)=O)cc2)n1"
  number: 36
- compound: "Cc1nnc(-c2cccc(-c3ccc(C(=O)NCC4CC4)cc3)c2)o1"
  number: 9.01
- compound: "CNC(=O)c1sc(-n2cnc3cc(OC)c(OC)cc32)cc1OCc1ccccc1C(F)(F)F"
  number: 13.2
- compound: "CS(=O)(=O)CCNCc1ccc(-c2ccc3ncnc(Nc4ccc(OCc5cccc(C(F)(F)F)c5)cc4)c3c2)o1"
  number: 8.35
- compound: "CS(=O)(=O)CCNCc1ccoc1-c1ccc2ncnc(Nc3ccc(OCc4ccccc4)cc3)c2c1"
  number: 3.46

Identify measured inhibition associated with CC1=C(C(=O)Nc2ccc3[nH]nc(C)c3c2)C(c2ccc(C(F)(F)F)cc2)CC(=O)N1 (centres undefined) 7.08

Identify measured inhibition associated with CCN1CCC(C(=O)Nc2n[nH]c3nnc(-c4cccc(F)c4F)cc23)CC1 1.43

Identify measured inhibition associated with CNC(=O)c1ncccc1Nc1nc(Nc2cc3c(cc2OC)CCCN3C(=O)CN(C)C)nc2[nH]ccc12 5.83

Identify measured inhibition associated with O=C(Nc1n[nH]c2nnc(-c3cccnc3)cc12)C1CC1 3.61

----------
tested_system: Sphingosine kinase 2 (Homo sapiens);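 also: values reported as mean percent inhibition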
condition_context: at 0.1 µM
measurement_kind: inhibition (%)
Output spec: scalar in %, unitless text.

- record_smiles: "COc1cc2c(cc1Nc1nc(Nc3cccc(F)c3C(N)=O)c3cc[nH]c3n1)N(C(=O)CN1CCN(C(C)C)CC1)CC2"
  tested_system: "Sphingosine kinase 2 (Homo sapiens)"
  inhibition, %: -0.45
- record_smiles: "COc1cc(N2CCN(C(C)C)CC2)ccc1Nc1nc(Nc2cccc(F)c2C(=O)O)c2cc[nH]c2n1"
  tested_system: "Sphingosine kinase 2 (Homo sapiens)"
  inhibition, %: -0.64

Identify measured inhibition associated with Cc1nnc(-c2cccc(-c3ccc(C(=O)NCC4CC4)cc3)c2)o1 0.67

Identify measured inhibition associated with CCS(=O)(=O)c1ccc(OC)c(Nc2ncc(-c3cccc(F)c3)o2)c1 -0.46

Identify measured inhibition associated with N#Cc1cccc(Nc2ncc(-c3ccccc3)o2)c1 0.09

Identify measured inhibition associated with CNC(=O)c1sc(-n2cnc3cc(OC)c(OC)cc32)cc1OCc1ccccc1C(F)(F)F -1.57

Identify measured inhibition associated with O=C(Nc1n[nH]c2nnc(-c3cccnc3)cc12)C1CC1 -0.36

Identify measured inhibition associated with CS(=O)(=O)CCNCc1ccc(-c2ccc3ncnc(Nc4ccc(OCc5ccccc5)cc4)c3c2)o1 -0.85

Identify measured inhibition associated with CC1(C)CC(n2cnc(-c3ccc(F)cc3)c2-c2ccnc(N)n2)CC(C)(C)N1 3.82

Identify measured inhibition associated with CNC(=O)c1cncc(/C=C/c2ccccc2C)c1 0
